# System: SARS coronavirus
quantityKind: inhibitory activities in initial screening

compound	testResult
O=C(/C=C/c1ccc(O)c(O)c1)O[C@@H]1C[C@](O)(C(=O)O)C[C@@H](O)[C@H]1O	not detectable
C[C@H]1[C@H](OC(=O)CCC(=O)O)O[C@@H]2O[C@@]3(C)CC[C@H]4[C@H](C)CC[C@@H]1[C@@]24OO3 [artesunate]	not detectable

---

# protocolNotes: in vitro
# measurementContext: rhesus monkey
Catalogue of CC50 values
quantityKind: CC50 (µg/mL)

molecule	quantityKind	inequalityOperator	testResult
O=C(O)[C@H]1O[C@@H](Oc2cc3oc(-c4ccccc4)cc(=O)c3c(O)c2O)[C@H](O)[C@@H](O)[C@@H]1O	CC50	>	100
NC(=O)c1ncn([C@@H]2O[C@H](CO)[C@@H](O)[C@H]2O)n1	CC50	>	1000
Cc1cccc(C)c1OCC(=O)N[C@@H](Cc1ccccc1)[C@@H](O)C[C@H](Cc1ccccc1)NC(=O)[C@H](C(C)C)N1CCCNC1=O	CC50	=	32
CC(N)C12CC3CC(CC(C3)C1)C2 (centres unmarked)	CC50	=	64
CC1(C)[C@@H](O[C@H]2O[C@H](C(=O)O)[C@@H](O)[C@H](O)[C@H]2O[C@@H]2O[C@H](C(=O)O)[C@@H](O)[C@H](O)[C@H]2O)CC[C@]2(C)[C@H]3C(=O)C=C4[C@@H]5C[C@@](C)(C(=O)O)CC[C@]5(C)CC[C@@]4(C)[C@]3(C)CC[C@@H]12	CC50	>	400

Origin of values: paper PMC7128415
